Provide the recorded inhibition of aggregation for the entries that follow.
- assaySummary: reduction of polyQ htt aggregates in cells – imaging, exon1htt(103Q)mCFP cells, high-content imaging, primary screen (AID 483);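 further: compound exposure lasted 3 days before fixation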
- measurementContext: exon1htt(103Q)mCFP cell line, aggregate imaging, at 2 µM; hits give high values
Numbers only, in %.

Examples from the recorded data:
[ask] Indicate the recorded inhibition of aggregation value for this molecule: O=C(COc1ccc(Cl)cc1)Nc1ncccn1
[reply] 4.3

[ask] Indicate the recorded inhibition of aggregation value for this molecule: O=c1oc2ccccc2c(N2CCCCC2)c1CN1CCCCC1
[reply] -7.2

[ask] Indicate the recorded inhibition of aggregation value for this molecule: CCn1cc(C(=O)NCC2COc3ccccc3O2)c2cc(OC)c(OC)cc2c1=O (centres undefined)
[reply] -6.2

[ask] Indicate the recorded inhibition of aggregation value for this molecule: COc1ccc(C2NC(c3ccc(OC)c(OC)c3OC)C(C)C(=O)C2C)c(OC)c1OC (centres undefined)
[reply] 2.6

[ask] Indicate the recorded inhibition of aggregation value for this molecule: CC1CN(CC(O)COc2ccc(C(C)C)cc2)CC(C)O1 (centres undefined)
[reply] 7.5

Give inhibition of aggregation for each listed item.
1. Cn1c(=O)c2c(ncn2CC(O)CNc2ccc(Cl)cc2)n(C)c1=O (centres undefined)
2. O=C(O)c1cnn2c1NC(c1ccc(F)cc1)CC2C(F)(F)F (centres undefined)
3. CN(c1cccc(NS(=O)(=O)c2cccs2)c1)S(C)(=O)=O
4. CCOC(=O)CSc1nnc(CNC(=O)c2cccs2)n1-c1cc(OC)ccc1OC
5. CCCCCCNC(=O)Cc1c(O)c2ccccc2[nH]c1=O
6. Cc1csc(SCC(=O)NC(=O)NCc2ccccc2)n1
7. CNC(=O)c1ccccc1NC(=O)c1c(O)c2c([nH]c1=O)CCCC2

[reply]
1. -15.7
2. -6.3
3. -15.2
4. -5.1
5. -12.8
6. -16.6
7. -9.3

Give inhibition of aggregation for each listed item.
1. O=C(COC(=O)c1ccco1)NCc1cccs1
2. COc1ccc2c(c1)c(CC(=O)O)c(C)n2C(=O)c1ccc(Cl)cc1
3. O=C(O)CCCC(=O)Nc1ccc(Br)cc1C(=O)O

[reply]
-4.6
-23.8
-5.6

Reference source: PubChem BioAssay
